Experiment: reduced growth of AddAB-expressing E. coli cells – absorbance, AddAB inhibitor project, primary screen (AID 435030);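 further: 0% = vehicle wells of infected cells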
Conditions: E. coli expressing H. pylori AddAB, at 11.9 µM, stronger effect = higher value
The whole screen tested about 330,000 compounds, of which about 940 (0.28%) were called active. The sample as a whole holds a higher share of actives than the screen did.
quantity: inhibition

mol-smiles: O=C(NCc1ccco1)c1ccc([N+](=O)[O-])cc1Cl
data-value: 0% (inactive)
--
mol-smiles: OCCNCCOc1ccc(Cl)c(Cl)c1
data-value: 0.51% (inactive)
--
mol-smiles: NS(=O)(=O)c1cccc(NC(=O)COC(=O)c2cc([N+](=O)[O-])ccc2N2CCCC2)c1
data-value: 0.9% (inactive)
--
mol-smiles: CCOc1ccc(NC(=O)CN(C)C(=O)Cc2sc(C)nc2-c2ccc(F)cc2)cc1OCC
data-value: 1.75% (inactive)
--
mol-smiles: Brc1cnc(N2CCCC2)nc1N1CCCCC1
data-value: 2.22% (inactive)

* * *

Here the recorded inhibition is given for each entry.
Assay: reduced growth of AddAB-expressing E. coli cells – absorbance, AddAB inhibitor project, primary screen (AID 435030);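 further: 0% = vehicle wells of infected cells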
Settings: E. coli expressing H. pylori AddAB, at 11.9 µM, stronger effect = higher value
Out of some 330,000 compounds screened, about 940 (0.28%) were called active. What follows is part of a selection rich in actives, with near analogues and random picks from the rest.
quantity: inhibition (%)

mol-smiles: C=CC(=O)OCCOCCOCCOCCOC(=O)C=C
units-label: %
data-value: -0.85
//
mol-smiles: CCn1cc(C(=O)NCCC(=O)NCCO)c(=O)c2cc3c(cc21)OCO3
units-label: %
data-value: -2.55
//
mol-smiles: CCCc1nnc(SCC(=O)Nc2ccc(C(=O)OCC)cc2)o1
units-label: %
data-value: 2.66
//
mol-smiles: CCCCCCn1cc(C(=O)O)c(=O)c2cc(F)c(N3CCCCC3)cc21
units-label: %
data-value: -1.14
//
mol-smiles: COC(=O)c1cc(S(=O)(=O)N2CCC(C(N)=O)CC2)oc1C
units-label: %
data-value: -2.11
//
mol-smiles: O=C(COC(=O)c1ccc([N+](=O)[O-])o1)NC12CC3CC(CC(C3)C1)C2
units-label: %
data-value: 2.74
//
mol-smiles: Cc1ccc(COc2ccc(C(=O)NN)cc2)cc1
units-label: %
data-value: 3
//
mol-smiles: CCn1cc(S(=O)(=O)c2cccc(C)c2)c(=O)c2cc(F)c(N3CCN(C)CC3)cc21
units-label: %
data-value: -1.64
//
mol-smiles: CCOC(=O)c1ccc(NC(=O)Cc2cccs2)cc1
units-label: %
data-value: 3.49
//
mol-smiles: Cc1ccc(Cl)cc1NC(=S)N(CCN(C)C)Cc1cccs1
units-label: %
data-value: 4.63
//
mol-smiles: CN1CCN(c2cc3c(cc2F)c(=O)c(C(=O)O)cn3CCF)CC1
units-label: %
data-value: 98.6

* * *

Assay: reduced growth of AddAB-expressing E. coli cells – absorbance, AddAB inhibitor project, primary screen (AID 435030);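 further: 0% = vehicle wells of infected cells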
Conditions: E. coli expressing H. pylori AddAB, at 11.9 µM, stronger effect = higher value
Hit rate of the full screen: of about 330,000 compounds, about 940 (0.28%) were called active. This is one part of a sample in which actives are shown more often than they occur.
quantity: inhibition

compound: CCOC(=O)N1CCC(Nc2c(NCCCN3CCN(c4ccc(OC)cc4)CC3)c(=O)c2=O)CC1
quantity: inhibition
data-value: 2.85% (inactive)
//
compound: CC(Sc1nnc(Cc2ccc([N+](=O)[O-])cc2)o1)C(N)=O (stereo not given)
quantity: inhibition
data-value: 2.62% (inactive)
//
compound: O=C1CCC(=O)N(O)CCCCCNC(=O)CCC(=O)N(O)CCCCCNC(=O)CCC(=O)N(O)CCCCCN1
quantity: inhibition
data-value: 35.8% (active)
//
compound: O=C(O)c1cccc(NC(=S)N/N=C/c2c[nH]c3ccccc23)c1
quantity: inhibition
data-value: 3.31% (inactive)
//
compound: Cc1ccc(C(=O)/C=C/Nc2ccc(S(=O)(=O)Nc3onc(C)c3C)cc2)cc1
quantity: inhibition
data-value: 12.7% (active)
//
compound: CCC1CO/C(=C(\C(=C(Cl)Cl)N2CCOCC2)[N+](=O)[O-])N1 (stereo not given)
quantity: inhibition
data-value: 0.26% (inactive)
//
compound: CCOc1ccccc1NC(=O)COc1ccc(S(=O)(=O)N2CCCC2)cc1
quantity: inhibition
data-value: 2.68% (inactive)
//
compound: Nc1nonc1-n1nnc(C(=O)N/N=C/c2c[nH]c3ccccc23)c1-c1ccccc1
quantity: inhibition
data-value: 0.34% (inactive)
//
compound: COC(=O)C1=C(C)N(C)C(=O)NC1c1ccc([N+](=O)[O-])o1 (stereo not given)
quantity: inhibition
data-value: 3.34% (inactive)
//
compound: O=C(Cc1ncc(C(F)(F)F)cc1Cl)Nc1cccc(Br)c1
quantity: inhibition
data-value: 0.17% (inactive)
